System tested: Squalene synthase (Rattus norvegicus, UniProt Q02769)
Sequence (Q02769 whole entry): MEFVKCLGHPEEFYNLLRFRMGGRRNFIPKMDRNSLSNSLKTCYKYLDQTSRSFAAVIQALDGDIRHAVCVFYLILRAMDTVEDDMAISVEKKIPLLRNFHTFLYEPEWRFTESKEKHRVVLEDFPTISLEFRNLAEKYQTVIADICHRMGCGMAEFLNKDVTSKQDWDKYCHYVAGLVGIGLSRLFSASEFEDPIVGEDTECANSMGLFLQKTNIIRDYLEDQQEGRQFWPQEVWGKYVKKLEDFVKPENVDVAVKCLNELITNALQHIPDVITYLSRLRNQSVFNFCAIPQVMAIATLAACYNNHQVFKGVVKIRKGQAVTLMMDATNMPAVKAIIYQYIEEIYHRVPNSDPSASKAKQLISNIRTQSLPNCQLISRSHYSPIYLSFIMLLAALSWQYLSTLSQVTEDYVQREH
Test name: In vitro inhibitory activity against Squalene synthase from rats
Recorded metric: IC50 (nM)

1 = C=C(CC[C@]12O[C@H](C(C)=O)[C@@](O)(C(=O)O)[C@](C(=O)O)(O1)[C@H](O)[C@H]2O)[C@@H](OC(C)=O)[C@H](C)Cc1ccccc1
2 = C=C(CC[C@]12O[C@H](CN)[C@@](O)(C(=O)O)[C@](C(=O)O)(O1)[C@H](OC(=O)/C=C/[C@@H](C)C[C@@H](C)CC)[C@H]2O)[C@@H](OC(C)=O)[C@H](C)Cc1ccccc1
3 = C=C(CC[C@]12O[C@H](CN=C(N)N)[C@@](O)(C(=O)O)[C@](C(=O)O)(O1)[C@H](OC(=O)/C=C/[C@@H](C)C[C@@H](C)CC)[C@H]2O)[C@@H](OC(C)=O)[C@H](C)Cc1ccccc1
Challenge: Order the records, beginning with the lowest IC50 and ending with the highest. List each label, following the requested order.
Response given: 2, 3, 1
(2: 4 nM, 3: 65 nM, 1: 500 nM)
